Sourced from patent US20220340597A1

# Target entity: hERG channel (Homo sapiens)
# Assay comment: hERG channel inhibition assay (patch-clamp, CHOhERG cells)
# Assay context: CHOhERG cells, whole-cell patch-clamp
# Experimental: hERG Channel Inhibition Assay: The hERG K^+ channels were cloned in humans and stably expressed in a CHO (Chinese hamster ovary) cell line. CHOhERG cells were used for patch-clamp (voltage-clamp, whole-cell) experiments. […] After the cells were stabilized for a few minutes, the amplitude and kinetics of IKhERG were recorded at a stimulation frequency of 0.1 Hz (6 bpm). […]
Here, each record is paired with measured IC50 data.
Value kind: IC50

| Compound | Value kind | Readout value |
| --- | --- | --- |
| Cc1cc(N2CCNCC2)ncc1N1CCN2CCN(c3ccc(C#N)c4ncccc34)CC2C1 (stereo not shown) [Example 38] | IC50 | > 20 µM |
| [2H]c1ccc2c(N3C[C@@H]4CN(Cc5ccc(N6CC7(CN(C)C7)C6)nc5C)CCN4[C@H](C)C3)ccc(C#N)c2n1 [Example 80] | IC50 | > 20 µM |
| C[C@@H]1CN(c2ccc(C#N)c3ncccc23)C[C@@H]2CN(CCc3ccc(N4C[C@@H](N)[C@@H](F)C4)nc3)CCN21 [Example 17] | IC50 | > 20 µM |
| C[C@@H]1CN(c2ccc(C#N)c3ncccc23)C[C@@H]2CN(c3nccc(N4CCNCC4)n3)CCN21 [Example 30] | IC50 | > 10 µM |
| C[C@@H]1CN(c2ccc(C#N)c3ncccc23)C[C@@H]2CN(c3nccc(N4CC(N)C4)n3)CCN21 [Example 39] | IC50 | > 10 µM |
| C[C@@H]1CN(c2ccc(C#N)c3ncccc23)C[C@@H]2CN(Cc3ccc(N4CCNCC4)nc3)CCN21 [Example 8] | IC50 | > 20 µM |
| C[C@@H]1CN(c2ccc(C#N)c3ncccc23)C[C@@H]2CN(Cc3ccc4c(c3)CNCC4)CCN21 (relative stereo) [Example 1] | IC50 | > 20 µM |

----------
# Target entity: human TLR7 (Homo sapiens, UniProt Q9NYK1)
# Construct: host or cells: HEK293 (HEK-Blue hTLR7)
# Sequence (Q9NYK1 27-1049): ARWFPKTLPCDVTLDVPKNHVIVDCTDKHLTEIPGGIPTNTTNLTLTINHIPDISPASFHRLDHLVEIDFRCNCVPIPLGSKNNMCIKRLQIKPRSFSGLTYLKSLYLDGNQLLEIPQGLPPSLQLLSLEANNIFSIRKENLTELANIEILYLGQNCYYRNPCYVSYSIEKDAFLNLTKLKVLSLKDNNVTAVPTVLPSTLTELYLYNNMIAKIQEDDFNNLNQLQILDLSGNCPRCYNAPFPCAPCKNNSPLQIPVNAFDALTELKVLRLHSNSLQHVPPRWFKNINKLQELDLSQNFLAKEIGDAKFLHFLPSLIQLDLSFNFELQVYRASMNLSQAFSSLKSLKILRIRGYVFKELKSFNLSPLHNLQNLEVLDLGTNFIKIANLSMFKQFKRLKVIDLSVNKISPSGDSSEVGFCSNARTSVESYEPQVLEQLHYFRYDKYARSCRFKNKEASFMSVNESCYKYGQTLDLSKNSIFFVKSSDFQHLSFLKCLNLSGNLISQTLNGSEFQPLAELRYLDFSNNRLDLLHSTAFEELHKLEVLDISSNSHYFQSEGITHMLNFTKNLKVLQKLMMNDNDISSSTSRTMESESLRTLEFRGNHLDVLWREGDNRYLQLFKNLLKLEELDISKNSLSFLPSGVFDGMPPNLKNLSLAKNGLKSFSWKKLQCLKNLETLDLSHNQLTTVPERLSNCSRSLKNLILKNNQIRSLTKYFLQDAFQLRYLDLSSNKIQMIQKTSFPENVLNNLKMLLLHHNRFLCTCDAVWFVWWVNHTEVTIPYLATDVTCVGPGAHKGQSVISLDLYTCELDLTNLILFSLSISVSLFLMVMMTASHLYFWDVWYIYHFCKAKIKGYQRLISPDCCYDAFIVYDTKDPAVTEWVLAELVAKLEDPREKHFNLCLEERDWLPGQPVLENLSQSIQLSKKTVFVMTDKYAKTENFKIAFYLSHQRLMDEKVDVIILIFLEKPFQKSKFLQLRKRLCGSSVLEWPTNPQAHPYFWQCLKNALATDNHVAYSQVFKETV
# Assay comment: HEK293-Blue-hTLR-7 cells assay
# Assay type: cell-based
# Assay context: HEK293-Blue-hTLR7 cells, R848 stimulation, 20 hrs, SEAP reporter; read-out: HEK/hTLR7 IC50
// reported IC50 per item

| Compound | IC50 [nM] |
| --- | --- |
| C[C@@H]1CN(c2cccc(CCN3CCN4[C@@H](C3)CN(c3ccc(C#N)c5ncccc35)C[C@H]4C)n2)CCN1 | 20 |
| C[C@@H]1CN(c2ccc(C#N)c3ncccc23)C[C@@H]2CN(CCc3ccc(N4CCN[C@@H](C)C4)cn3)CCN21 | 14 |
| N#Cc1ccc(N2CCN3CCN(c4cccc5c4CNC5)CC3C2)c2cccnc12 (stereo not shown) | 29 |
| [2H]c1ccc2c(N3C[C@@H]4CN(c5ncc(N6C[C@@H](N)[C@@H](OC)C6)cc5C)CCN4[C@H](C)C3)ccc(C#N)c2n1 | 2 |
| C[C@@H]1CN(c2ccc(C#N)c3ncccc23)C[C@@H]2CN(CCc3ccc(N4CC5(CNCCO5)C4)cc3)CCN21 | 12 |
| [2H]c1ccc2c(N3C[C@@H]4CN(Cc5ccc(N6CC7CC(C6)N7)nc5C)CCN4[C@H](C)C3)ccc(C#N)c2n1 | 13 |
| [2H]c1ccc2c(N3C[C@@H]4CN(c5ncc(N6CC[C@@](C)(N)C6)cc5C)CCN4[C@H](C)C3)ccc(C#N)c2n1 | 2 |

----------
# Target entity: hERG channel (Homo sapiens)
# Construct: expressed in transfected cells; host or cells: CHO (Chinese hamster ovary), CHOhERG
# Assay comment: hERG channel inhibition assay (patch-clamp, CHOhERG cells)
# Type: cell-based
# Assay context: safety ratio
Value kind: hERG IC20/TLR8 IC50

| Molecule | Readout value |
| --- | --- |
| C[C@@H]1CN(c2ccc(C#N)c3ncccc23)C[C@@H]2CN(Cc3ccc4c(c3)CNCC4)CCN21 (relative stereo) [Example 1] | >1000 |
| Cc1cc(N2CCN3[C@@H](C2)CN(c2ccc(C#N)c4ncccc24)C[C@H]3C)nc(N2CC(C)(N)C2)n1 [Example 55] | >249 |
| CO[C@H]1CN(c2ccc(CCN3CCN4[C@@H](C3)CN(c3ccc(C#N)c5ncccc35)C[C@H]4C)cn2)C[C@@H]1N [Example 25] | >400 |
| Cc1cc(N2CC3(CN(C)C3)C2)cnc1N1CCN2[C@@H](C1)CN(c1cc(=O)n(C)c3ncccc13)C[C@@H]2C [Example 113] | >70 |

----------
# Target entity: hERG channel (Homo sapiens, UniProt Q12809)
# Construct: expressed in transfected cells; host or cells: CHO (Chinese hamster ovary), CHOhERG
# Sequence (Q12809 whole entry): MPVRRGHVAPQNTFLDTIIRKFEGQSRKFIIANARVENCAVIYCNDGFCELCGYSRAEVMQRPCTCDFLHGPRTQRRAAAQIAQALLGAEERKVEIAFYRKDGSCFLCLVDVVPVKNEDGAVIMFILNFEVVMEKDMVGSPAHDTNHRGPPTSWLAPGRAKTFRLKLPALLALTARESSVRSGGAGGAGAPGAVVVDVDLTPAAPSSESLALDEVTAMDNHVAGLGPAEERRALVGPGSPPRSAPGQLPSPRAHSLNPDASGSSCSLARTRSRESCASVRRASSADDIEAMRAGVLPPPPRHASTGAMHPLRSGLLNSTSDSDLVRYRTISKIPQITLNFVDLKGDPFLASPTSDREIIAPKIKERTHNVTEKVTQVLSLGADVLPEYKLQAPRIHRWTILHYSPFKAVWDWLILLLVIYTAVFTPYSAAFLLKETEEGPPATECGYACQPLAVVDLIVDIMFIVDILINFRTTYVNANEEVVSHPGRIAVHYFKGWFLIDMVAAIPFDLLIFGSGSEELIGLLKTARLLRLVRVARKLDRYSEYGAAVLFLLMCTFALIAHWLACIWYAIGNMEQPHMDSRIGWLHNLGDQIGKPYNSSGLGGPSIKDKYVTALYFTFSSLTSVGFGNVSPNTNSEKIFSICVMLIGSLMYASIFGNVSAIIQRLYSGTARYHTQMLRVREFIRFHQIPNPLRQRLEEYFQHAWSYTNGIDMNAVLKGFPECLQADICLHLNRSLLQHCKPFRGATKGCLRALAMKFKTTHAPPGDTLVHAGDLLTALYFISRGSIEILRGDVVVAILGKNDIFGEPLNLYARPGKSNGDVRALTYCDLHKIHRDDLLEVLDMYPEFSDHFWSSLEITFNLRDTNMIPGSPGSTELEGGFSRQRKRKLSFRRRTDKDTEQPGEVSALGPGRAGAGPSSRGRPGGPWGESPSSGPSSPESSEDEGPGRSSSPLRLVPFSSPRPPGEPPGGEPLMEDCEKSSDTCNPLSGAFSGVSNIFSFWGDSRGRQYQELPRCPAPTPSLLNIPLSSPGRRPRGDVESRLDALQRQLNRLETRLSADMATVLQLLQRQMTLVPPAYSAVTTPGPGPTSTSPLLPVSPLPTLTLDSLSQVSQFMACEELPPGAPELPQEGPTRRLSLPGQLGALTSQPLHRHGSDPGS
# Assay comment: hERG channel inhibition assay (patch-clamp, CHOhERG cells)
# Assay type: cell-based
# Assay context: safety ratio
# Protocol: hERG Channel Inhibition Assay: The hERG K^+ channels were cloned in humans and stably expressed in a CHO (Chinese hamster ovary) cell line. CHOhERG cells were used for patch-clamp (voltage-clamp, whole-cell) experiments. […] After the cells were stabilized for a few minutes, the amplitude and kinetics of IKhERG were recorded at a stimulation frequency of 0.1 Hz (6 bpm). […]
Let's look at some molecules and their measured hERG IC20/TLR9 IC50.

| Molecule | Target entity | Censoring sign | hERG IC20/TLR9 IC50 |
| --- | --- | --- | --- |
| [2H]c1ccc2c(N3C[C@@H]4CN(Cc5ccc(N6C[C@H]7NCCO[C@@H]7C6)nc5C)CCN4[C@H](C)C3)ccc(C#N)c2n1 [Example 98] | hERG channel (Homo sapiens, UniProt Q12809) | > | 172 |
| [2H]c1ccc2c(N3C[C@@H]4CN(Cc5ccc(N6CC7CNCC(C6)O7)nc5C)CCN4[C@H](C)C3)ccc(C#N)c2n1 [Example 83] | hERG channel (Homo sapiens, UniProt Q12809) | > | 196 |
| CO[C@@H]1CN(c2nccc(N3CCN4[C@@H](C3)CN(c3ccc(C#N)c5ncccc35)C[C@H]4C)n2)C[C@H]1N [Example 36] | hERG channel (Homo sapiens, UniProt Q12809) | = | 82 |
| C[C@@H]1CN(c2ccc(C#N)c3ncccc23)C[C@@H]2CN(c3cc(N4CCNCC4)ccn3)CCN21 [Example 34] | hERG channel (Homo sapiens, UniProt Q12809) | = | 113 |

----------
# Target entity: human TLR9 (Homo sapiens)
# Sequence (Q9NR96 26-1032): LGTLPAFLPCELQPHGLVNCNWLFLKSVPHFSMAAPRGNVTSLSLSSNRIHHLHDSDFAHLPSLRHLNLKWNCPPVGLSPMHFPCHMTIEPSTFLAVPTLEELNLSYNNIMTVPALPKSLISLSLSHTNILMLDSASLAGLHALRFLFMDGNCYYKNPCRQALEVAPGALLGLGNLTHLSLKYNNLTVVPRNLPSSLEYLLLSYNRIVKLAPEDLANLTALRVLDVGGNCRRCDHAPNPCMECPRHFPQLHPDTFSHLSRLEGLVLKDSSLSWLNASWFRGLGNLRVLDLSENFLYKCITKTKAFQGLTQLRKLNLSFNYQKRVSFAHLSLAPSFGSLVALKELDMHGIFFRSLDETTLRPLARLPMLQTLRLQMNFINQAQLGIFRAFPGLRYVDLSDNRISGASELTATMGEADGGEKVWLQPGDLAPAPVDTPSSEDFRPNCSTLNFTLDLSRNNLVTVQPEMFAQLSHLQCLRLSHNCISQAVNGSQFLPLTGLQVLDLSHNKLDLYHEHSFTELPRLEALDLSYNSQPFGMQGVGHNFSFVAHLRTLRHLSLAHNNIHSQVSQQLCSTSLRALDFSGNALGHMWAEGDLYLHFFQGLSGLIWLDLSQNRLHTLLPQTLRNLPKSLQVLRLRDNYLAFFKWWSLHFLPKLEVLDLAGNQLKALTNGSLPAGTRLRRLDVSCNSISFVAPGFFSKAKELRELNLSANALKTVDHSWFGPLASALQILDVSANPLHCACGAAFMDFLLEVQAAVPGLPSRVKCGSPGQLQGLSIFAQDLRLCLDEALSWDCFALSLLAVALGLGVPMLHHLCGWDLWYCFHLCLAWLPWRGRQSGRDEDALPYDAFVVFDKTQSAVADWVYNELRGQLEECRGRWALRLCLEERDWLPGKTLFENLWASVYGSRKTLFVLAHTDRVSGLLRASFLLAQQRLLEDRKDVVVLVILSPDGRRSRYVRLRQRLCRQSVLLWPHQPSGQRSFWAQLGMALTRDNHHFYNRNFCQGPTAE
# Assay comment: HEK293-Blue-hTLR-9 cells assay
# Assay context: HEK293-Blue-hTLR9 cells, ODN2006 stimulation, 20 hrs, SEAP reporter; read-out: HEK/hTLR9 IC50
IC50 strictly less than 60 nM = Criterion met. Otherwise Criterion not met.

| Structure smiles | Assigned label |
| --- | --- |
| CO[C@@H]1CN(c2ccc(CCN3CCN4[C@@H](C3)CN(c3ccc(C#N)c5ncccc35)C[C@H]4C)cn2)C[C@H]1N | Criterion met |
| CO[C@@H]1CN(c2ccnc(N3CCN4[C@@H](C3)CN(c3ccc(C#N)c5ncccc35)C[C@H]4C)n2)C[C@H]1N | Criterion not met |
| C[C@@H]1CN(c2ccc(C#N)c3ncccc23)C[C@H]2CN(c3cncc4c3CCNC4)CCN21 | Criterion met |
| [2H]c1ccc2c(N3C[C@@H]4CN(c5ncc(C(=O)N6CC7(CN(C)C7)C6)cc5C)CCN4[C@@H](C)C3)ccc(C#N)c2n1 | Criterion not met |
| C[C@@H]1CN(c2ccc(C#N)c3ncccc23)C[C@@H]2CN(Cc3cncc(N4CCNCC4)c3)CCN21 | Criterion not met |
| C[C@@H]1CN(c2ccc(C#N)c3ncccc23)C[C@@H]2CN(Cc3cccc4c3CCNC4)CCN21 | Criterion not met |
| C[C@@H]1CN(c2ccc(C#N)c3ncccc23)C[C@@H]2CN(c3nccc(N4CCNCC4)n3)CCN21 | Criterion not met |
